Recorded measurements of % Ra2 Binding Inhibition, one per entry
# testedOn: T1, human IL-13 R130Q variant (R110Q of the mature chain) (human, UniProt P35225 35-146, Biotinylated on amines (NHS-LC-biotin, 4:1) in ELISA, panning and competition assays. The letters are unchanged.)
# T1 construct: R130Q counts from Met 1 of the signal peptide, R110Q on the mature chain; Bought from Peprotech; also called IL-13 R110Q; b-R130Q
# protocolText: Ra2 binding inhibition ELISA, mAb in crude HEK293 supernatant, IL-13 binding to IL-13Ra2
Report only the number, with the unit % understood.

{"binder": "mAb with Lc 3A09 (Lc6 variant) and Hc2 (antibody, V domains shown, human IgG1) VH: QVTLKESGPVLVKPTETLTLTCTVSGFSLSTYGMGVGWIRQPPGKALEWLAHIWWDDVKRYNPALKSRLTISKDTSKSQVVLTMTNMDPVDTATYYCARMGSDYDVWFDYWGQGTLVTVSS VL: EIVLTQSPATLSLSPGERATLSCRASKSISKYLAWYQQKPGQAPRLLIYSGSTLQSGIPARFSGSGSGTDFTLTISSLEPEDFAVYYCQQHDLGPYTFGQGTKLEIK", "unitString": "%", "% Ra2 Binding Inhibition": 76.5}
{"binder": "mAb with Lc 2H01 (Lc6 variant) and Hc2 (antibody, V domains shown, human IgG1) VH: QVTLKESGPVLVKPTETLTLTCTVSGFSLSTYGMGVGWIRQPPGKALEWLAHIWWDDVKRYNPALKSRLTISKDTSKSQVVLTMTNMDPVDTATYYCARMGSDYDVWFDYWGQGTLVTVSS VL: EIVLTQSPATLSLSPGERATLSCRASKSISKYLAWYQQKPGQAPRLLIYSGSTLQSGIPARFSGSGSGTDFTLTISSLEPEDFAVYYCQQHDWEPYTFGQGTKLEIK", "unitString": "%", "% Ra2 Binding Inhibition": 80}

## Input For the binder shown here, mAb with Lc 2C01 (Lc6 variant) and Hc2 (antibody, V domains shown, human IgG1) VH: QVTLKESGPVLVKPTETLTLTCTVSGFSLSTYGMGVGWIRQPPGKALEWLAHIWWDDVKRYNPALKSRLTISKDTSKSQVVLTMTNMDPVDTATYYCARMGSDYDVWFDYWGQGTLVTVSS VL: EIVLTQSPATLSLSPGERATLSCRASKSISKYLAWYQQKPGQAPRLLIYSGSTLQSGIPARFSGSGSGTDFTLTISSLEPEDFAVYYCQQHSIGPYTFGQGTKLEIK , give the reported % Ra2 Binding Inhibition.
## Output 67.7

## Input Please answer likewise for mAb with Lc 5B03 (Lc6 variant) and Hc2 (antibody, V domains shown, human IgG1) VH: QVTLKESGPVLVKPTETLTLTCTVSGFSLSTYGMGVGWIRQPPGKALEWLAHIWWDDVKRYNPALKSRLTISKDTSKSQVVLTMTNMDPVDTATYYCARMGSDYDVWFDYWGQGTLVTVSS VL: EIVLTQSPATLSLSPGERATLSCRASKSISKYLAWYQRKPGQAPRLLIYSGSTLQSGIPARFSGSGSGTDFTLTISSLEPEDFAVYYCQQHNEAPYTFGQGTKLEIK
## Output 63

## Input Please answer likewise for mAb with Lc 2C04 (Lc6 variant) and Hc2 (antibody, V domains shown, human IgG1) VH: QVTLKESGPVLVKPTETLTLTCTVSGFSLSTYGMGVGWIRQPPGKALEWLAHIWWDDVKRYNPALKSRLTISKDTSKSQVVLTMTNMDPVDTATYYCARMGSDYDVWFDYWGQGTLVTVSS VL: EIVLTQSPATLSLSPGERATLSCRASKSISKYLAWYQQKPGQAPRLLIYSGSTLQSGIPARFSGSGSGTDFTLTISSLEPEDFAVYYCQQHNFGPYTFGQGTKLEIK
## Output 61.9

## Input Please answer likewise for mAb with Lc 5D03 (Lc6 variant) and Hc2 (antibody, V domains shown, human IgG1) VH: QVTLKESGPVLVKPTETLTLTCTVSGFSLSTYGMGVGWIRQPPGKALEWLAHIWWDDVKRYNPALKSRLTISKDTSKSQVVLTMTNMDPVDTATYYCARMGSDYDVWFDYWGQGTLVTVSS VL: EIVLTQSPATLSLSPGERATLSCRASKSISKYLAWYQQKPGQAPRLLIYSGSTLQSGIPARFSGSGSGTDFTLTISSLEPEDFAVYYCQQHSYGPYTFGQGTKLEIK
## Output 72.8
